Listing of entries alongside the reported K0.5.
- test target: D(2) dopamine receptor (Rattus norvegicus)
- test description: Affinity towards Dopamine receptor D2 was evaluated in rat striatal membrane using [3H]spiperone as radioligand
- Format: cell membranes
- assay conditions: Striatum

compound: Oc1cc2c(cc1O)[C@@H]1c3ccccc3CN[C@@H]1CC2 (relative stereo)
inequality symbol: >
K0.5, nM: 1000
//
compound: Oc1cc2c(cc1O)CC(NCc1ccccc1)CC2 (stereo unspecified)
inequality symbol: =
K0.5, nM: 335
//
compound: CCCN1CCC[C@@H]2Cc3n[nH]cc3C[C@H]21
inequality symbol: =
K0.5, nM: 49
//
compound: C=CCN1CCc2c(cc(O)c(O)c2Cl)[C@@H](c2ccccc2)C1
inequality symbol: =
K0.5, nM: 73
//
compound: CCCN1Cc2ccccc2[C@@H]2c3cc(O)c(O)cc3CC[C@H]21
inequality symbol: =
K0.5, nM: 27
//
compound: Oc1ccc2c(c1O)CCC(NCc1ccccc1)C2 (stereo unspecified)
inequality symbol: >
K0.5, nM: 1000

###

- Organism: Rattus norvegicus
- test description: Evaluated for the maximum stimulation of adenylate cyclase in rat striatal tissue with respect to the maximum stimulation caused by dopamine
- Assay type: functional, Striatum

cpd smiles: CN1Cc2ccccc2[C@@H]2c3ccc(O)c(O)c3CC[C@H]21
readout unit: %
Stimulation: 22

cpd smiles: NC[C@@H]1O[C@H](C23CC4CC(CC(C4)C2)C3)Cc2c1ccc(O)c2O
readout unit: %
Stimulation: 92

cpd smiles: C=CCN1Cc2ccccc2[C@@H]2c3cc(O)c(O)cc3CC[C@H]21
readout unit: %
Stimulation: 32

###

- test target: UniProt:P18901
- Sequence (P18901 whole entry): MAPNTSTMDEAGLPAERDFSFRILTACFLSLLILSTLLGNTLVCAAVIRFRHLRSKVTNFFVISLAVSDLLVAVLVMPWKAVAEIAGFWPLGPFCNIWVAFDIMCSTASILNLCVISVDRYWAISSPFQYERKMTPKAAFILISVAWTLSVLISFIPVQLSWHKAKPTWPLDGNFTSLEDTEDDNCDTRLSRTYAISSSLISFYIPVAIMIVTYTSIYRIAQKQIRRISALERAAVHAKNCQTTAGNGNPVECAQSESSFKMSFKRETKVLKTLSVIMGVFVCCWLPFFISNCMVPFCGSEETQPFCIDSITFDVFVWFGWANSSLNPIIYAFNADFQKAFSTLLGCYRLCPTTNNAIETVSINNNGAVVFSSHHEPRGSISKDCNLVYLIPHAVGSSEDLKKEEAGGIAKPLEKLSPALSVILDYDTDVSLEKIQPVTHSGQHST
- test description: Affinity towards Dopamine receptor D1 was evaluated in rat striatal membrane using [3H]SCH-23,390 as radioligand
- Format: cell membranes
- assay conditions: Striatum

compound: Oc1cc2c(cc1O)[C@@H]1c3ccccc3CN[C@@H]1CC2 (relative stereo)
K0.5: > 1000 nM
//
compound: Oc1cc2c(cc1O)CC(NCc1ccccc1)CC2 (centres undefined)
K0.5: > 1000 nM
//
compound: Oc1ccc2c(c1O)CCC(NCc1ccccc1)C2 (centres undefined)
K0.5: > 1000 nM
//
compound: CCCN1CCC[C@@H]2Cc3n[nH]cc3C[C@H]21
K0.5: > 10000 nM
